- test.system: T1, human IL-6 (human, UniProt P05231 30-212)
- T1 construct: IL-6 flowed over captured antibodies
- T1 sequence (P05231 30-212 limits assumed): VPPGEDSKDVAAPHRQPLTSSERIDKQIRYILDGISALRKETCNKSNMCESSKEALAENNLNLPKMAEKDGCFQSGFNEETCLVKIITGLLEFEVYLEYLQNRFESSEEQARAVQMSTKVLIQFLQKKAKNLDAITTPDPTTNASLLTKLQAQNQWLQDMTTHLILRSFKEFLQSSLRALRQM
- protocol: SPR Biacore, supernatant Ab on Protein A chip, 37 C
measured.metric: kon
The reply should read as a number followed by its unit.

In: Need kon of anti-IL-6 antibody, heavy chain I51D, G66D / light chain M32L, M50D, N52S, M88Q (antibody, IgG1, V domains shown, Full IgG1 (Expi293); VL = variant III) VH: EVQLVESGGGLVQPGGSLRLSCAASGFTFSPFAMSWVRQAPGKGLEWVAKDSPGGSWTYYSDTVTDRFTFSLDTSKSTAYLQMNSLRAEDTAVYYCARQLWGYYALDIWGQGTLVTVSS VL: DIQLTQSPSSLSASVGDRVTITCSASISVSYLYWYQQKPGKAPKLLIYDDSSLASGVPSRFSGSGSGTDFTLTISSLQPEDFATYYCQQWSGYPYTFGQGTKVEIK , thanks.
Out: 834000 M⁻¹ s⁻¹

In: Requested read-out: kon. Entry: anti-IL-6 antibody, heavy chain T65F, G66D / light chain M32L, M50D, N52S, M88Q (antibody, IgG1, V domains shown, Full IgG1 (Expi293); VL = variant III) VH: EVQLVESGGGLVQPGGSLRLSCAASGFTFSPFAMSWVRQAPGKGLEWVAKISPGGSWTYYSDTVFDRFTFSLDTSKSTAYLQMNSLRAEDTAVYYCARQLWGYYALDIWGQGTLVTVSS VL: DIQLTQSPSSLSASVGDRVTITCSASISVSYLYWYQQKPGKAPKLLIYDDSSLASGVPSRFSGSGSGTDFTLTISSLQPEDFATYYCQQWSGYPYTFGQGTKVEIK
Out: 1.34e+06 M⁻¹ s⁻¹

In: Report kon for anti-IL-6 antibody, heavy chain I51F, G66D / light chain M32L, M50D, N52S, M88Q (antibody, IgG1, V domains shown, Full IgG1 (Expi293); VL = variant III) VH: EVQLVESGGGLVQPGGSLRLSCAASGFTFSPFAMSWVRQAPGKGLEWVAKFSPGGSWTYYSDTVTDRFTFSLDTSKSTAYLQMNSLRAEDTAVYYCARQLWGYYALDIWGQGTLVTVSS VL: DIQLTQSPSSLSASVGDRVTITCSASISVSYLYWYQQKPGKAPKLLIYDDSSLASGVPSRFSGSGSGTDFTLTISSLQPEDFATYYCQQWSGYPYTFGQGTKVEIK please.
Out: 1.37e+06 M⁻¹ s⁻¹

In: For the binder anti-IL-6 antibody, heavy chain T65K, G66D / light chain M32L, M50D, N52S, M88Q (antibody, IgG1, V domains shown, Full IgG1 (Expi293); VL = variant III) VH: EVQLVESGGGLVQPGGSLRLSCAASGFTFSPFAMSWVRQAPGKGLEWVAKISPGGSWTYYSDTVKDRFTFSLDTSKSTAYLQMNSLRAEDTAVYYCARQLWGYYALDIWGQGTLVTVSS VL: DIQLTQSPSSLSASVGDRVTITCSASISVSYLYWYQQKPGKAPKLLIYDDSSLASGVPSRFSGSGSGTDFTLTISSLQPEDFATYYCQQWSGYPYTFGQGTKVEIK , what kon is on record?
Out: 1.63e+06 M⁻¹ s⁻¹

In: # kon lookup, item anti-IL-6 antibody, heavy chain T65Q, G66D / light chain M32L, M50D, N52S, M88Q (antibody, IgG1, V domains shown, Full IgG1 (Expi293); VL = variant III) VH: EVQLVESGGGLVQPGGSLRLSCAASGFTFSPFAMSWVRQAPGKGLEWVAKISPGGSWTYYSDTVQDRFTFSLDTSKSTAYLQMNSLRAEDTAVYYCARQLWGYYALDIWGQGTLVTVSS VL: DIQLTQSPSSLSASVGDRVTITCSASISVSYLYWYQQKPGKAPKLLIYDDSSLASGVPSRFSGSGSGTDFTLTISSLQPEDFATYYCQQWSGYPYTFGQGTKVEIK
Out: 2.18e+06 M⁻¹ s⁻¹
